Molecular target: T1, human BCMA (human, UniProt Q02223 1-54, limits assumed)
T1 construct: also called B-cell maturation antigen; human BCMA polypeptide
T1 sequence: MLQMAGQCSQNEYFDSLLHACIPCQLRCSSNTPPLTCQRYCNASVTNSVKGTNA
Assay: CLIPS peptide epitope mapping (Pepscan)

binder	binding result
BCMA-23 scFv (scFv) scFv: EVQLVESGGGLVKPGGSLRLSCAASGFTFSDYYMSWIRQAPGKGLEWVSYISSSGSTIYYADSVKGRFTISRDNAKNSLYLQMNSLRAEDTAVYYCAKVDGDYTEDYWGQGTLVTVSSGGGGSGGGGSGGGGSQSALTQPASVSGSPGQSITISCTGSSSDVGKYNLVSWYQQPPGKAPKLIIYDVNKRPSGVSNRFSGSKSGNTATLTISGLQGDDEADYYCSSYGGSRSYVFGTGTKVTVL	binds
BCMA-26 scFv (scFv) scFv: EVQLVESGGGLVKPGGSLRLSCAASGFTFSDYYMSWIRQAPGKGLEWVSYISSSGSTIYYADSVKGRFTISRDNAKNSLYLQMNSLRAEDTAVYYCAKVDGPPSFDIWGQGTMVTVSSGGGGSGGGGSGGGGSSYVLTQPPSVSVAPGQTARITCGANNIGSKSVHWYQQKPGQAPMLVVYDDDDRPSGIPERFSGSNSGNTATLTISGVEAGDEADYFCHLWDRSRDHYVFGTGTKLTVL	binds
